Assay: yeast display, Sf9 membrane polyspecificity reagent, FACS + sequencing; frameworks hold sequencing errors
Measured endpoint: polyreactivity (PSR sort gate)

Sequence entry: QVQLVESGGGLVQAGGSLRLSCAASGFIFYRYAMGWYRQQPGKERELVAAISSRGGTTYYADSVKWRFTISRDNAKNTVYLQMNSLKPEDTAVYYCAADRGYKMGYWLQGTQVTVSS
Result: high polyreactivity
--
Sequence entry: QVQLVESGGGLVQAGGSLRLSCAASGRILGDYAMGWYRQAPGKEREFVAASDYNGGSTNYADSVKGRFTISRDNAKNTVYLQMNSLKPEETAVYYCAAPGFPSRNGFGYWGQGTQVTVSS
Result: low polyreactivity
--
Sequence entry: QVQLVESGGGLVQAGGSLRLSCAASGSIFDFYAMGWYRQAPGKERELVADISSSDGSTSYADSVKGRFTISRDNAKNTVYLQLNSLKPEDTAVYYCAASQLFGWFPYDYWGQGTQVTVSS
Result: high polyreactivity
--
Sequence entry: QVQLVESGGGLVQAGGSLRLSCAASGSTFYGYAMGWYRQAPGKERELVAAISSNGDSTYYADSVKGRFTISRDNAKNSVYLQMNILKPEDTAVYYCATDPEGSTGGGYEFWGQGTQVTVSS
Result: low polyreactivity
--
Sequence entry: QVQLVESGGGLVQAGGSLRLSCAASGFIFRYYAMGWYRQAPGKERELVASISYSGGTTYYADSVKGRFTISRDNAKNTVYLQMNSLKPEDTAVYYCNVYSRTHYQTYTDDYWGQGTQVTVSS
Result: high polyreactivity
